- assay-remarks: 4-week oral gavage toxicokinetic study with Compound A in dogs (plasma)
- run-parameters: both, beagle, dog, plasma, po, 5 mg/kg, t1/2, mean elimination half-life; dog plasma; Day 28; Group 2; Cmpd A 5 mg/kg/dose oral gavage
reported-endpoint: half-life (h)

Cn1c(=O)n(C2CCC(=O)NC2=O)c2cccc(C#CCOC3CCN(C[C@H]4CC[C@H](n5cc(NC(=O)c6cnn7ccc(N8C[C@H]9C[C@@H]8CO9)nc67)c(C(F)F)n5)CC4)CC3)c21 (stereo partly shown) [Compound A]    8.19

====

- assay-remarks: 4-week oral gavage toxicokinetic study with Compound A in dogs (plasma)
- run-parameters: both, beagle, dog, plasma, po, 5 mg/kg, t1/2, mean elimination half-life; dog plasma; Day 1; Group 2; Cmpd A 5 mg/kg/dose oral gavage
reported-endpoint: half-life (h)

Cn1c(=O)n(C2CCC(=O)NC2=O)c2cccc(C#CCOC3CCN(C[C@H]4CC[C@H](n5cc(NC(=O)c6cnn7ccc(N8C[C@H]9C[C@@H]8CO9)nc67)c(C(F)F)n5)CC4)CC3)c21 (stereo partly shown)    7.6
